- subject.of.test: full length Aurora-A (AA 1-403) (Homo sapiens)
- Sequence (O14965 1-403): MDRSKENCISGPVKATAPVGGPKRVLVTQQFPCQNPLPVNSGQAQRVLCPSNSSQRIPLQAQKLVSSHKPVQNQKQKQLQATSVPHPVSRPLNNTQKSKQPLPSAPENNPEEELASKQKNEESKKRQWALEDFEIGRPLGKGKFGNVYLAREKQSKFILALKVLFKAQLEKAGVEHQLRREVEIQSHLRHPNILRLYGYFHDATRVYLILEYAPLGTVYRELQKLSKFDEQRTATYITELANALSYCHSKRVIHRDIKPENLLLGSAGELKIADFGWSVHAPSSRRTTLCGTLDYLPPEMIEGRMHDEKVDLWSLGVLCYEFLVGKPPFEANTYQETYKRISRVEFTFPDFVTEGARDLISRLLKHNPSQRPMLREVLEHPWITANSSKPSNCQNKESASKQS
// reported Ki per item

These recorded examples may help you get a feel for the data.
> print(dat)
                                test.smiles  measured.property  recorded.value
1  CC(=O)N1[C@H](C)CN(c2nc(-c3c[nH]c4ncc(Cl)cc34)c(F)cc2C#N)C[C@@H]1C                 Ki        < 500 nM
2  COCCNC(=O)[C@H](C)Nc1nc(-c2c[nH]c3ncc(Cl)cc23)ncc1F                 Ki        < 500 nM
3  CNC(=O)CCNC(=O)[C@H](C)Nc1nc(-c2c[nH]c3ncc(Cl)cc23)ncc1F                 Ki        < 500 nM
4  CC(C)c1cnc(-c2c[nH]c3ncc(Cl)cc23)nc1N[C@@H](C)C(=O)NCC(F)(F)F                 Ki        < 500 nM
5  Fc1cnc(-c2c[nH]c3ncc(Cl)cc23)nc1OCc1ccc(Cl)cc1                 Ki  500 to 5000 nM

Ask: GET /values?readout=Ki&item= `Fc1cnc(-c2c[nH]c3ncc(Cl)cc23)nc1NCC1CCCCC1`
Result: < 500 nM

Ask: Value lookup for Ki; key = `CC(=O)N1[C@H](C)CN(c2cccc(-c3c[nH]c4ncc(NC(=O)CCN5CCNCC5)cc34)n2)C[C@@H]1C`
Result: 500 to 5000 nM

Ask: Reported Ki for `CC(=O)N1CCCN(c2cccc(-c3c[nH]c4ncc(C(=O)NCCCN5CCN(C)CC5)cc34)n2)CC1` : what is it?
Result: 500 to 5000 nM

----------
- subject.of.test: JAK3 (Homo sapiens)
- Sequence (P52333 1-1124): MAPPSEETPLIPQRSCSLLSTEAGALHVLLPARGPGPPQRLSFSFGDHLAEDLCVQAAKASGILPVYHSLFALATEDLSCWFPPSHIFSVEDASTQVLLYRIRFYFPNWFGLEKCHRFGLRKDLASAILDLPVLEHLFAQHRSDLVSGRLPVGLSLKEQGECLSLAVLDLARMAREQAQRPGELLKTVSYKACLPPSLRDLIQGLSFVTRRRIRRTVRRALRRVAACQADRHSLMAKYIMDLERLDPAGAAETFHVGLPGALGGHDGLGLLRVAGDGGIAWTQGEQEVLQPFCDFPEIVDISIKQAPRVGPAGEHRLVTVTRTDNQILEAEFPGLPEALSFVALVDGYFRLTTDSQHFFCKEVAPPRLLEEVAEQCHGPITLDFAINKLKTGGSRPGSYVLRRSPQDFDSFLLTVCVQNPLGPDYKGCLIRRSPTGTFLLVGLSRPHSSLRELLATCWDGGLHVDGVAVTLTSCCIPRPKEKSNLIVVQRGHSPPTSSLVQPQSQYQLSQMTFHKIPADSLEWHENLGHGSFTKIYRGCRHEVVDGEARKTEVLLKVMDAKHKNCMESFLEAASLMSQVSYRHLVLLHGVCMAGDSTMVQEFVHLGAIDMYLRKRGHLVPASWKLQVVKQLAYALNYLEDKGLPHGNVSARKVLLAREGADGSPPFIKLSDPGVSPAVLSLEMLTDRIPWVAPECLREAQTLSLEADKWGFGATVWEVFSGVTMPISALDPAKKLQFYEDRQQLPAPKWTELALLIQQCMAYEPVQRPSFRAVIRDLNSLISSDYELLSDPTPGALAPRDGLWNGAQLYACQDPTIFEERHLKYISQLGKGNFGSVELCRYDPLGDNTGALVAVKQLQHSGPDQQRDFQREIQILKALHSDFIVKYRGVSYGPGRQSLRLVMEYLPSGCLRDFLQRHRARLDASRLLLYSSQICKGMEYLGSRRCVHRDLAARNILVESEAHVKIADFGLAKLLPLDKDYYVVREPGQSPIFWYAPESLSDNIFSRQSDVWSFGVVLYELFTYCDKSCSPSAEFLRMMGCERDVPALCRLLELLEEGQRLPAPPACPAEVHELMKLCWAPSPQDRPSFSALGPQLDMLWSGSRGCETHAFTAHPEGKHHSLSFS
- test.protocol: JAK3 inhibition assay (standard radioactive enzyme assay)
- Assay type: biochemical
- condition.label: Ki(app); average Ki if more than one value determined
measured.property: Ki

Ask: Need Ki, item c1ccc(CNc2ccnc(-c3c[nH]c4ncccc34)n2)cc1 [Compound 11]
Result: < 500 nM
